- testedTarget: BCL6::BCOR (Homo sapiens, UniProt P41182, C67R/C84N/C8Q)
- Construct: BCL6 (amino acids 5 to 129, with the following changes to the natural protein)
- protocol: BCL6::BCOR ULight TR-FRET assay
reportedEndpoint: pIC50
To interpret pIC50, take it as minus log10 of a concentration measured in moles per litre.

Consider the following illustrative entries.
> print(dat)
                                   molecule  readoutvalue
1  CNC(=O)COc1cc2cc(Nc3nc(N4C[C@H](C)C[C@H](C)C4)ncc3F)ccc2n(C)c1=O          8.05
2  CCn1c(=O)c(OCC(=O)NC)cc2cc(Nc3nc(-n4nc(C)cc4C)ncc3Cl)ccc21          8.15
3  CNC(=O)COc1cc2cc(Nc3nc(N4CCC(O)(C(F)(F)F)CC4)ncc3Cl)ccc2n(C)c1=O          8.30

Moving on to the next compound.
[in] Can you look up the measured pIC50 of CNC(=O)COc1cc2cc(Nc3nc(N4CCC[C@@H](C)C4)ncc3Cl)ccc2n(C)c1=O for me?
[out] 8.15

###

- testedTarget: BCL6::BCOR (Homo sapiens, UniProt P41182, C67R/C84N/C8Q)
- Construct: BCL6 (amino acids 5 to 129, with the following changes to the natural protein)
- protocol: BCL6::BCOR ULight TR-FRET assay
Below, each entry is listed with its recorded pIC50.
// pIC50 here means minus log10 of the molar concentration (mol/L)

> print(dat)
                                   molecule  reportedendpoint  readoutvalue
1  Cn1c(=O)c(OCC(=O)O)cc2cc(Nc3nc(N4CCC5(CCCCC5)CC4)ncc3Cl)ccc21 [Compound I-111]             pIC50          6.97
2  CNC(=O)[C@@H](C)Oc1cc2cc(Nc3nc(N4CCC(C(=O)N(C)C)CC4)ncc3Cl)ccc2n(C)c1=O [Compound I-162]             pIC50          7.01

# next molecule below
[in] Recorded pIC50 of CNC(=O)COc1cc2cc(Nc3nc(N4C[C@H](C)C[C@@H](C)C4)ncc3Cl)ccc2n(C)c1=O (single isomer, unassigned) [Compound I-5] , please.
[out] 7.92

###

- testedTarget: BCL6::BCOR (Homo sapiens, UniProt P41182, C67R/C84N/C8Q)
- Construct: BCL6 (amino acids 5 to 129, with the following changes to the natural protein)
- protocol: BCL6::BCOR ULight TR-FRET assay
reportedEndpoint: pIC50
# pIC50: negative log10 of molar concentration; output just the value

> print(dat)
                                   molecule  reportedendpoint  readoutvalue
1  CCn1c(=O)c(OCC(=O)NC)cc2cc(Nc3nc(N4CCC(C(=O)N(C)C)CC4)ncc3Cl)ccc21             pIC50          8.30

[in] Find pIC50 (BCL6::BCOR (Homo sapiens, UniProt P41182, C67R/C84N/C8Q)) for the entry Cn1c(=O)c(OCC(=O)O)cc2cc(Nc3nc(N4CCC(Nc5ncccn5)CC4)ncc3Cl)ccc21
[out] 8.00

###

Documented pIC50 across a set of compounds
- testedTarget: BCL6::BCOR (Homo sapiens, UniProt P41182, C67R/C84N/C8Q)
- Construct: BCL6 (amino acids 5 to 129, with the following changes to the natural protein)
- protocol: BCL6::BCOR ULight TR-FRET assay
Remember, pIC50 is on a log scale: it is -log10 of the molar concentration.

[in] Please give the measured pIC50 for this compound: COC(=O)COc1cc2cc(Nc3nc(N4C[C@H](C)C[C@H](C)C4)ncc3Cl)ccc2n(C)c1=O
[out] 8.00

###

- testedTarget: BCL6::BCOR (Homo sapiens, UniProt P41182, C67R/C84N/C8Q)
- Construct: BCL6 (amino acids 5 to 129, with the following changes to the natural protein)
- protocol: BCL6::BCOR ULight TR-FRET assay
reportedEndpoint: log10(IC50) (log10 of the value in nM)
Give log10 of IC50, with IC50 taken in nM.

[in] Requested field: log10(IC50). Item: CNC(=O)COc1cc2cc(Nc3nc(N4CCC(N(C)CC(F)(F)F)CC4)ncc3Cl)ccc2n(C)c1=O
[out] 0.85

###

- testedTarget: BCL6::BCOR (Homo sapiens, UniProt P41182, C67R/C84N/C8Q)
- Construct: BCL6 (amino acids 5 to 129, with the following changes to the natural protein)
- protocol: BCL6::BCOR ULight TR-FRET assay
reportedEndpoint: pIC50
Interpret pIC50 as the negative base-10 log of the concentration measured in mol/L.

Some solved cases for reference:
> print(dat)
                                   molecule                              testedtarget  readoutvalue
1  C[C@@H]1C[C@H](C)CN(c2ncc(Cl)c(Nc3ccc4c(c3)cc(/C=C/C(=O)O)c(=O)n4C)n2)C1 [Compound I-165]  BCL6::BCOR (Homo sapiens, UniProt P41182, C67R/C84N/C8Q)          7.66
2  CNC(=O)COc1cc2cc(Nc3nc(N4C[C@H](C)C[C@H](C)C4)ncc3Cl)ccc2n(CC2CC2)c1=O [Compound I-87]  BCL6::BCOR (Homo sapiens, UniProt P41182, C67R/C84N/C8Q)          7.82
3  CCn1c(=O)c(OCC(=O)NC)cc2cc(Nc3nc(N4CCC[C@@H](C)C4)ncc3Cl)ccc21 [Compound I-77]  BCL6::BCOR (Homo sapiens, UniProt P41182, C67R/C84N/C8Q)          8.10
4  CN(C)C(=O)C1CCN(c2ncc(Cl)c(Nc3ccc4c(c3)cc(OCC(=O)O)c(=O)n4C)n2)CC1 [Compound I-152]  BCL6::BCOR (Homo sapiens, UniProt P41182, C67R/C84N/C8Q)          8.30
5  C[C@@H]1C[C@H](C)CN(c2ncc(Cl)c(Nc3ccc4c(c3)cc(OCC(=O)N(C)C)c(=O)n4C)n2)C1 [Compound I-133]  BCL6::BCOR (Homo sapiens, UniProt P41182, C67R/C84N/C8Q)          7.54

[in] Value wanted: pIC50 (BCL6::BCOR (Homo sapiens, UniProt P41182, C67R/C84N/C8Q)) of entry CNC(=O)COc1cc2cc(Nc3nc(N4C[C@H](C)C[C@H](C)C4)ncc3Cl)cc(OC)c2n(C)c1=O [Compound I-99]
[out] 8.15

[in] What pIC50 appears in the records for this molecule with BCL6::BCOR (Homo sapiens, UniProt P41182, C67R/C84N/C8Q)? CNC(=O)COc1cc2cc(Nc3nc(N4CC(C)NC(CF)C4)ncc3Cl)ccc2n(C)c1=O (centres unmarked) [Compound I-12]
[out] 8.15

[in] Please tell me: pIC50 of CNC(=O)COc1cc2cc(Nc3nc(N4C[C@@H](C)C[C@H](C)C4)ncc3Cl)ccc2n(C)c1=O (single isomer, unassigned) [Compound I-6] , system BCL6::BCOR (Homo sapiens, UniProt P41182, C67R/C84N/C8Q)?
[out] 8.15

###

- testedTarget: BCL6::BCOR (Homo sapiens, UniProt P41182, C67R/C84N/C8Q)
- Construct: BCL6 (amino acids 5 to 129, with the following changes to the natural protein)
- protocol: BCL6::BCOR ULight TR-FRET assay
pIC50 reference
Expect pIC50 as a plain number equal to -log10 of the molar concentration.

See these solved cases before continuing.
> print(dat)
                                   molecule  reportedendpoint  readoutvalue
1  CNC(=O)COc1cc2cc(Nc3nc(N4CCC[C@@H](C(=O)O)C4)ncc3Cl)cc(OC)c2n(C)c1=O             pIC50          8.70
2  CCNC(=O)COc1cc2cc(Nc3nc(N4C[C@H](C)C[C@H](C)C4)ncc3Cl)ccc2n(C)c1=O             pIC50          7.68

[in] So what does the record say about pIC50 for CNC(=O)COc1cc2cc(Nc3nc(N4CCc5cn[nH]c5C4)ncc3Cl)ccc2n(C)c1=O ?
[out] 8.30
